Form: system (UniProtKB P08069), quantity (log10 of IC50), values below.
Sequence (P08069 31-1367, species assumed): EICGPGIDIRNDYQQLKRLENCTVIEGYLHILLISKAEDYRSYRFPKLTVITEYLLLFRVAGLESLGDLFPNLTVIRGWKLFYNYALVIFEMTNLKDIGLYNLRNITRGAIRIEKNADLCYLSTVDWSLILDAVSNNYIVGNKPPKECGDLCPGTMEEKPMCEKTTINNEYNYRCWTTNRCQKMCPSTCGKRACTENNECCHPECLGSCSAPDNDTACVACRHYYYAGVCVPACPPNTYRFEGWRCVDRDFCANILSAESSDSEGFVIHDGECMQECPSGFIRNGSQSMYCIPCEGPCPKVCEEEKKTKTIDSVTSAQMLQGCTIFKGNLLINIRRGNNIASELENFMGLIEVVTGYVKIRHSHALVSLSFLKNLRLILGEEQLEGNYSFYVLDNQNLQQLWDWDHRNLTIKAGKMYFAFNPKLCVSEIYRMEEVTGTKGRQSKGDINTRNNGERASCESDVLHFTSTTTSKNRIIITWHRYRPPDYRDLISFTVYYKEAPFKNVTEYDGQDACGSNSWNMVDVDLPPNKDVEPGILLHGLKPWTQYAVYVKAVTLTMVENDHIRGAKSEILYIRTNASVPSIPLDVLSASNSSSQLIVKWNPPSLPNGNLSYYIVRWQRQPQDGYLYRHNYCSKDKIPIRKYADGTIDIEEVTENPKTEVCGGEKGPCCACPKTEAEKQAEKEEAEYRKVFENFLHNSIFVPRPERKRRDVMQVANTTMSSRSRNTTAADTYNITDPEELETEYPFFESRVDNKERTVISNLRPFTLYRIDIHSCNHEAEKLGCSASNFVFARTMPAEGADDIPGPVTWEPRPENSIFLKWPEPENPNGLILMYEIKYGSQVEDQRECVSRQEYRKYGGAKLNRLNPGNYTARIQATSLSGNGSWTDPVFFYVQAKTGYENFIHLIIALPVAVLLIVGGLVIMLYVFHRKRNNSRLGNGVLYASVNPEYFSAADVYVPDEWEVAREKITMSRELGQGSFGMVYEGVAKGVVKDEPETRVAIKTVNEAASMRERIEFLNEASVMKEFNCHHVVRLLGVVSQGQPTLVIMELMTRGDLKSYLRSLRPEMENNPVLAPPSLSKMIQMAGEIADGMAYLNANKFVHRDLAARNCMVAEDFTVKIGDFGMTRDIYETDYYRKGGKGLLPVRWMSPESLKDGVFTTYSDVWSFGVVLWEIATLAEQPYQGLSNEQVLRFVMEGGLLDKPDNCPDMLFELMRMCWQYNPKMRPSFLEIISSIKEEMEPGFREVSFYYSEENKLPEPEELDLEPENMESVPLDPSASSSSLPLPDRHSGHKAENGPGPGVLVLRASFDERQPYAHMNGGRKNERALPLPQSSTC
Recorded IC50 (log10, nM)

Need log10 of IC50 of NCC1CC(n2cc(-c3ccc4c(ccn4Cc4ccccc4)c3)c3c(N)ncnc32)C1 (stereo not drawn) , thanks. 3.15

Here is the next compound: Nc1ncnc2c1c(-c1cccc(O)c1)cn2C1CC(CN2CCCC2)C1 (stereo not drawn) [Compound 1] 1.78

Here is the next compound: Nc1ncnc2c1c(-c1cccc(O)c1)cn2C1CC(CN2CCCC2)C1 (stereo not drawn) [Compound 2] 2.04

Here is the next compound: NCC1CC(n2cc(-c3ccc(N)cc3)c3c(N)ncnc32)C1 (stereo not drawn) 3.36

Here is the next compound: NCC1CC(n2cc(-c3cc4ccccc4o3)c3c(N)ncnc32)C1 (stereo not drawn) 3.92

Here is the next compound: C[Si](C)(COc1cccc(-c2cn(C3CC(CN)C3)c3ncnc(N)c23)c1)c1ccccc1 (stereo not drawn) 2.51

----------
assayed.target: FAK (focal adhesion kinase) (Homo sapiens)
Construct: endogenous in cells
Sequence (Q05397 whole entry): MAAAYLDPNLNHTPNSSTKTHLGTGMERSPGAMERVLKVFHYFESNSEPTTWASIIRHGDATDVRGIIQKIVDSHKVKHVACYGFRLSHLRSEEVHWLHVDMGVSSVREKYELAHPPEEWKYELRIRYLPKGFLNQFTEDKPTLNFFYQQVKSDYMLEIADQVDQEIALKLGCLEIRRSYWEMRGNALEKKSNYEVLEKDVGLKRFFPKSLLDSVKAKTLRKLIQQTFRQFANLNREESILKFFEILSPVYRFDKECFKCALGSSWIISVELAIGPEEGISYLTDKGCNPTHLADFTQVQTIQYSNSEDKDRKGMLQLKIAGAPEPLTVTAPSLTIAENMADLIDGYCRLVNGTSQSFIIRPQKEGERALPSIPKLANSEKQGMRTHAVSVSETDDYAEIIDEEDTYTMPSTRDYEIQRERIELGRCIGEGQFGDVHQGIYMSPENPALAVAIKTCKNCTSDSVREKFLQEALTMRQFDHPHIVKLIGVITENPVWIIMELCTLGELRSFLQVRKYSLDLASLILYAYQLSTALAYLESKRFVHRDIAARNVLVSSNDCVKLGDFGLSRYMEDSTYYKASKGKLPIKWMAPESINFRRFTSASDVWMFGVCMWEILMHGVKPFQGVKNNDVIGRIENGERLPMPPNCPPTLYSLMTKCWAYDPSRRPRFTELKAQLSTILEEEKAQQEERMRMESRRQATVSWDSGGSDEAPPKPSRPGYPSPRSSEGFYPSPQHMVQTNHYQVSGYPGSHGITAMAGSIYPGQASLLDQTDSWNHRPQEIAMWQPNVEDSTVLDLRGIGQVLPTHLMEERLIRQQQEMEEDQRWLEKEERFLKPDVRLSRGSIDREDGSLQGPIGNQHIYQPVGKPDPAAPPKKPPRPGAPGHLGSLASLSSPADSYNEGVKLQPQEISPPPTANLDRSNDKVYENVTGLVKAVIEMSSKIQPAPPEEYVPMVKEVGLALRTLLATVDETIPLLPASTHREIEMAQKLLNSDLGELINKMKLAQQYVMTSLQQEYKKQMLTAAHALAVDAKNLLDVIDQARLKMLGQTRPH
method.notes: Inhibition of FAK (ELISA assay), FAK phosphorylation in cells
assay.setup: human cells with FAK amplification
reported.property: IC50 (µM)
Could you give me the number in µM? Just the number is fine.

Provide the documented IC50 with FAK (focal adhesion kinase) (Homo sapiens) as the system for NCC1CC(n2cc(-c3ccc4c(c3)n(Cc3ccccc3)c(=O)n4Cc3ccccc3)c3c(N)ncnc32)C1 (stereo not shown) 27

Here is the next compound: N#Cc1cccc(-c2cn(C3CC(CN)C3)c3ncnc(N)c23)c1 (stereo not shown) 25

Here is the next compound: NCC1CC(n2cc(-c3ccsc3)c3c(N)ncnc32)C1 (stereo not shown) 2.6

Here is the next compound: NCC1CC(n2cc(-c3cccc(OC(F)(F)F)c3)c3c(N)ncnc32)C1 (stereo not shown) 17.5

----------
Form: system (PDGFRβ (Homo sapiens)), quantity (pIC50), values below.
A value of pIC50 is the negative decimal logarithm of a concentration given in moles per litre.

Need pIC50 of NCC1CC(n2cc(I)c3c(N)ncnc32)C1 (centres unmarked) [Compound 52] , thanks. 5.96

Here is the next molecule: NCC1CC(n2cc(-c3cccc(F)c3)c3c(N)ncnc32)C1 (centres unmarked) [Compound 6] 6.15

Here is the next molecule: NCC1CC(n2cc(-c3cccc(NCc4ccccc4)c3)c3c(N)ncnc32)C1 (centres unmarked) [Compound 25] 5.92

Here is the next molecule: N#Cc1ccc(-c2cn(C3CC(CN)C3)c3ncnc(N)c23)cc1N (centres unmarked) [Compound 58] 6.37

Here is the next molecule: NCC1CC(n2cc(-c3ccc(N)cc3)c3c(N)ncnc32)C1 (centres unmarked) [Compound 24] 6.20

Here is the next molecule: Nc1ncnc2c1c(-c1cccc(O)c1)cn2C1CC(CN2CCCC2)C1 (centres unmarked) [Compound 1] 7.01

Here is the next molecule: N#Cc1ccc(-c2cn(C3CC(CN)C3)c3ncnc(N)c23)cc1F (centres unmarked) [Compound 59] 6.21

Here is the next molecule: NCC1CC(n2cc(-c3ccccc3)c3c(N)ncnc32)C1 (centres unmarked) [Compound 4] 6.04

Here is the next molecule: NCC1CC(n2cc(-c3ccc4occc4c3)c3c(N)ncnc32)C1 (centres unmarked) [Compound 63] 6.51

Here is the next molecule: Cc1csc(-c2cn(C3CC(CN)C3)c3ncnc(N)c23)c1 (centres unmarked) [Compound 70] 5.60

Here is the next molecule: NCC1CC(n2cc(-c3ccsc3)c3c(N)ncnc32)C1 (centres unmarked) [Compound 40] 6.12
